The measurements presented in this section are drawn from patent US20220380341A1.

molecular target: HIV-1 NefNL4-3 (Human immunodeficiency virus type 1 group M subtype B, UniProt P03406, A33V/T15A/T51N/V11I); experiment: Surface plasmon resonance binding to recombinant full-length Nef (NL4-3); details: Table 4; 2-step induced fit; T = 1/koff2

| Compound | T, minutes (residence time) |
| --- | --- |
| CC(=O)N1CCC(Cc2c(-c3ccc(C(F)(F)F)cc3)nn(-c3nc4ccccc4[nH]3)c2O)CC1 [Compound I-720] | 1.32E + 00 minutes |
| COc1cc(N2CCC(CCc3c(C4CC4)nn(-c4nc5cc(Cl)ccc5[nH]4)c3O)CC2)nc(OC)n1 [Compound I-902] | 1.46E + 06 minutes |
| Oc1c(CCC2CCN(c3ncc(F)cn3)CC2)c(C2CC2)nn1-c1nc2cc(Cl)ccc2[nH]1 [Compound I-901] | 2.46E + 05 minutes |
| Oc1c(CCc2ccc(F)cc2)c(C2CCN(Cc3ccccn3)CC2)nn1-c1nc2ccccc2[nH]1 [Compound I-802] | 2.21E + 01 minutes |
| CC(C)(C)OC(=O)N1CCC(CCc2c(-c3cccc(S(C)(=O)=O)c3)nn(-c3nc4ccccc4[nH]3)c2O)CC1 [Compound I-210] | 1.06E + 01 minutes |
| Oc1c(CC2CCCC2)c(-c2ccc(C(F)(F)F)cc2)nn1-c1nc2ccccc2[nH]1 [Compound I-123] | 3.79E + 05 minutes |
| Oc1c(CCc2ccc(F)cc2)c(C2CC2)nn1-c1nc2cccnc2[nH]1 [Compound I-308] | 5.81E + 00 minutes |
| COC(=O)N1CCC(CCc2c(-c3ccc(C(F)(F)F)cn3)nn(-c3nc4ccccc4[nH]3)c2O)CC1 [Compound I-715] | 3.76E + 00 minutes |
| CC(C)(C)c1nn(-c2nc3ccccc3[nH]2)c(O)c1CCc1ccc(F)cc1 [Compound I-130] | 1.15E + 01 minutes |
| Oc1c(CCC2CCOCC2)c(-c2ccc(C(F)(F)F)cc2)nn1-c1nc2ccccc2[nH]1 [Compound I-139] | 1.77E + 01 minutes |
| CS(=O)(=O)c1ccc(-c2nn(-c3nc4ccccc4[nH]3)c(O)c2CCc2ccc(F)cc2)cc1 [Compound I-148] | 3.26E + 04 minutes |
| O=C(OCc1ccccc1)N1CCCC(c2nn(-c3nc4ccccc4[nH]3)c(O)c2CCc2ccc(F)cc2)C1 (stereo not drawn) [Compound I-160] | 7.41E + 06 minutes |
| Oc1c(CC2CCOCC2)c(-c2ccccc2F)nn1-c1nc2ccccc2[nH]1 [Compound I-186] | 7.72E + 00 minutes |
| Oc1c(CCc2ccc(F)cc2)c(-c2ccc(C(F)(F)F)cn2)nn1-c1nc2cc(F)ccc2[nH]1 [Compound I-167] | 5.05E + 03 minutes |
| Oc1c(CC2CCOCC2)c(-c2ccc(F)cc2F)nn1-c1nc2ccccc2[nH]1 [Compound I-187] | 1.02E + 06 minutes |
